- Tested on: human Factor 11 mRNA
- Experiment notes: Dose-dependent inhibition of human Factor 11 in HepG2 cells, lipofectin 2.34-75 nM (Example 5)
- Assay type: cell-based
- Setup conditions: 37.5 nM, ~16 hours
Measured percent inhibition of human Factor 11 mRNA relative to untreated control cells of individual entries
Recorded metric: percent inhibition of human Factor 11 mRNA relative to untreated control cells (%)

1. 417002 (antisense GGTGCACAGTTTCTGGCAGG; 2-13-5 gapmer chemistry, further chemistry not given here) [compound 417002]: 81
2. 416838 (antisense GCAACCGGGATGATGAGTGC; 5-10-5 gapmer, further chemistry not given here) [compound 416838]: 74
3. 416858 (antisense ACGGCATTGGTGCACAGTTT; 5-10-5 gapmer, further chemistry not given here) [compound 416858]: 75
4. 416864 (antisense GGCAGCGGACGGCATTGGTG; 5-10-5 gapmer, further chemistry not given here) [compound 416864]: 68
5. 416850 (antisense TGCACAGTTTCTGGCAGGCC; 5-10-5 gapmer, further chemistry not given here) [compound 416850]: 70

---

WBC count: recorded values
- Experiment notes: Hematology assays in cynomolgus monkeys (Example 45)
- Assay type: in vivo
- Setup conditions: day 71; escalating dose regimen
Recorded metric: WBC count (µL⁻¹)

1. ISIS 416858: MOE gapmer, nucleobases 1275 to 1318 of SEQ ID NO: 1 (Table 8) (antisense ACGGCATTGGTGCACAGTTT; MOE gapmer, wing and gap sizes not given here): 13000
2. ISIS 416838: MOE gapmer, nucleobases 1018 to 1042 of SEQ ID NO: 1 (Table 6) (antisense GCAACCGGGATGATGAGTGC; MOE gapmer, wing and gap sizes not given here): 15000
3. ISIS 416864: MOE gapmer, nucleobases 1275 to 1318 of SEQ ID NO: 1 (Table 8) (antisense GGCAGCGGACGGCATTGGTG; MOE gapmer, wing and gap sizes not given here): 14000
4. ISIS 416850: MOE gapmer, nucleobases 1275 to 1318 of SEQ ID NO: 1 (Table 8) (antisense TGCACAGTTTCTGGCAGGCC; MOE gapmer, wing and gap sizes not given here): 15000
5. ISIS 417002: MOE gapmer, nucleobases 1275 to 1318 of SEQ ID NO: 1 (Table 8) (antisense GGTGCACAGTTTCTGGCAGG; MOE gapmer, wing and gap sizes not given here): 12000

---

- Experiment notes: Hematology assays in cynomolgus monkeys (Example 45)
- Format: in vivo
- Setup conditions: day −5; escalating dose regimen
Recorded metric: MCH (pg)

1. ISIS 416850: MOE gapmer, nucleobases 1275 to 1318 of SEQ ID NO: 1 (Table 8) (antisense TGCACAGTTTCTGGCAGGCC; MOE gapmer, wing and gap sizes not given here): 23
2. ISIS 416858: MOE gapmer, nucleobases 1275 to 1318 of SEQ ID NO: 1 (Table 8) (antisense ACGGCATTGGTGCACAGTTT; MOE gapmer, wing and gap sizes not given here): 23
3. ISIS 417002: MOE gapmer, nucleobases 1275 to 1318 of SEQ ID NO: 1 (Table 8) (antisense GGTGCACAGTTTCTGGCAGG; MOE gapmer, wing and gap sizes not given here): 24
4. ISIS 416838: MOE gapmer, nucleobases 1018 to 1042 of SEQ ID NO: 1 (Table 6) (antisense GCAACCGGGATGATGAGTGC; MOE gapmer, wing and gap sizes not given here): 23
5. ISIS 416864: MOE gapmer, nucleobases 1275 to 1318 of SEQ ID NO: 1 (Table 8) (antisense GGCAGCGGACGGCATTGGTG; MOE gapmer, wing and gap sizes not given here): 23
